# measurement protocol: chemical genetic growth profiling, strain panel (AID 1159580);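 note: tested at 20 µM; growth read once vehicle control cultures reached saturation at 30 °C; 1 = growth at the plate median or of vehicle wells; lower values mean less growth of the strain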
# conditions used: S. cerevisiae deletion strains, growth OD, locus YLR262C, strain YPT6
About 2,000 (36%) of roughly 5,500 compounds were called active. About 18% were inconclusive and are not listed. Cut-off read from the data, not from the text of the source: active = normalized growth mostly below about 0.91 (no sharp cut-off); inconclusive = no clear call, values can overlap the other calls; inactive = mostly above about 0.92. The list shows a part of the results.
Classes used: label 1 (active), label 0 (inactive)

>  <input smiles>
Cc1ccc(C(=O)NNC(=O)c2ccncc2)c(C)c1

>  <assigned label>
label 0

$$$$
>  <input smiles>
N/C(=N/OC(=O)C(Cl)Cl)c1cccc(Cl)c1Cl

>  <assigned label>
label 0

$$$$
>  <input smiles>
NC(=S)c1ccc2nonc2c1

>  <assigned label>
label 0

$$$$
>  <input smiles>
c1coc(CNc2ncnc3nc[nH]c23)c1

>  <assigned label>
label 0

$$$$
>  <input smiles>
COC(=O)Cc1nc(NC(=O)c2ccccc2)sc1C

>  <assigned label>
label 0

$$$$
>  <input smiles>
Cc1cc(C)nc(NS(=O)(=O)c2ccc(N)cc2)n1

>  <assigned label>
label 0

$$$$
>  <input smiles>
Cc1cc(N=CNO)c2ccccc2n1

>  <assigned label>
label 0

$$$$
>  <input smiles>
O=[N+]([O-])/N=C1/NCCN1Cc1ccc(Cl)cc1

>  <assigned label>
label 0

$$$$
>  <input smiles>
COC(=O)c1c(OC)ccc(N=CNO)c1OC

>  <assigned label>
label 0

$$$$
>  <input smiles>
Cc1cccc(N(C)C(=S)Oc2ccc3ccccc3c2)c1

>  <assigned label>
label 1

$$$$
>  <input smiles>
COc1cc2ccc(=O)oc2c2ccoc12

>  <assigned label>
label 0

$$$$
>  <input smiles>
N#C/C(=C\Nc1ccc2c(c1)OCCO2)S(=O)(=O)c1ccc(C(F)(F)F)cn1

>  <assigned label>
label 0

$$$$
>  <input smiles>
Nc1ncnc2nc[nH]c12

>  <assigned label>
label 1

$$$$
